# Tested on: Candida albicans
# TEST SUMMARY: Antifungal activity against Candida albicans ATCC 10231 after 15 to 18 hrs under aerobic condition by modified broth microdilution method
# Assay type: functional
QUANTITY KIND: MIC

Known MIC results, listed for orientation:
COMPOUND STRING: CC(C)c1nc(C[C@H](NC(=O)[C@H](Cc2c[nH]c3ccccc23)NC(=O)OC(C)(C)C)C(=O)NCc2ccccc2)c[nH]1
MEASURED TARGET: Candida albicans
MIC: > 200 µg/mL
--
COMPOUND STRING: CC(C)c1nc(C[C@H](NC(=O)OC(C)(C)C)C(=O)N[C@@H](CCCNC(=N)N)C(=O)NCc2ccccc2)c[nH]1
MEASURED TARGET: Candida albicans
MIC: > 200 µg/mL
--
COMPOUND STRING: CC(C)(C)OC(=O)N[C@@H](Cc1c[nH]c(C2CCCCC2)n1)C(=O)N[C@@H](CCCNC(=N)N)C(=O)NCc1ccccc1
MEASURED TARGET: Candida albicans
MIC: > 200 µg/mL

Below: the item to evaluate.
(Q) Data request, read-out MIC, for `N[C@@H](Cc1c[nH]c2ccccc12)C(=O)N[C@@H](Cc1c[nH]c(C23CC4CC(CC(C4)C2)C3)n1)C(=O)NCc1ccccc1`
(A) 50 µg/mL

* * *

# System: Candida albicans
# TEST SUMMARY: Antifungal activity against Candida albicans ATCC 10231 after 15 to 18 hrs under aerobic condition by modified broth microdilution method
# Format: functional
Where a SMILES comes first, the peptide text is derived from it.
The following compounds are listed with their measured MIC values.

Known MIC results, listed for orientation:
COMPOUND: COC(=O)[C@H](Cc1c[nH]c(C2CCCCC2)n1)NC(=O)[C@@H](N)Cc1c[nH]c2ccccc12
RESULT: > 200 µg/mL

COMPOUND: COC(=O)[C@H](CCCNC(=N)N)NC(=O)[C@H](Cc1c[nH]c(C(C)C)n1)NC(=O)OC(C)(C)C
RESULT: 200 µg/mL

COMPOUND: COC(=O)[C@H](CCCNC(=N)N)NC(=O)[C@@H](N)Cc1c[nH]c(C2CCC2)n1
RESULT: 200 µg/mL

(Q) Data request, read-out MIC, for `CC(C)(C)OC(=O)N[C@@H](Cc1c[nH]c(C23CC4CC(CC(C4)C2)C3)n1)C(=O)N[C@@H](CCCNC(=N)N)C(=O)NCc1ccccc1`
(A) > 200 µg/mL

(Q) Would you mind doing `CC(C)c1nc(C[C@H](NC(=O)[C@@H](N)Cc2c[nH]c3ccccc23)C(=O)NCc2ccccc2)c[nH]1` as well?
(A) > 200 µg/mL

(Q) Would you mind doing COC(=O)[C@H](CCCNC(=N)N)NC(=O)[C@@H](N)Cc1c[nH]cn1 (H-His-Arg-OMe) as well?
(A) > 200 µg/mL

(Q) Would you mind doing `CC(C)(C)OC(=O)N[C@@H](Cc1c[nH]c(C(C)(C)C)n1)C(=O)N[C@@H](CCCNC(=N)N)C(=O)NCc1ccccc1` as well?
(A) 200 µg/mL

(Q) Would you mind doing `COC(=O)[C@H](CCCNC(=N)N)NC(=O)[C@H](Cc1c[nH]c(C23CC4CC(CC(C4)C2)C3)n1)NC(=O)OC(C)(C)C` as well?
(A) 200 µg/mL

(Q) Would you mind doing `COC(=O)[C@H](Cc1c[nH]c(C(C)C)n1)NC(=O)[C@@H](N)Cc1c[nH]c2ccccc12` as well?
(A) 200 µg/mL

(Q) Would you mind doing `N=C(N)NCCC[C@H](NC(=O)[C@@H](N)Cc1c[nH]c(C2CCC2)n1)C(=O)NCc1ccccc1` as well?
(A) 100 µg/mL

(Q) Would you mind doing `COC(=O)[C@H](Cc1c[nH]c(C(C)C)n1)NC(=O)[C@H](Cc1c[nH]c2ccccc12)NC(=O)OC(C)(C)C` as well?
(A) > 200 µg/mL

Cited source for all entries: ChEMBL document CHEMBL1154782
